Can you tell me pIC50 for the items I'm about to list?
SYSTEM_TESTED: SARM1 (Homo sapiens, UniProt Q6SZW1)
Construct: made in house; host or cells: NRK1-HEK293T cells, transiently transfected; clarified lysate used unpurified
Sequence (Q6SZW1 with tags, fused parts or gaps): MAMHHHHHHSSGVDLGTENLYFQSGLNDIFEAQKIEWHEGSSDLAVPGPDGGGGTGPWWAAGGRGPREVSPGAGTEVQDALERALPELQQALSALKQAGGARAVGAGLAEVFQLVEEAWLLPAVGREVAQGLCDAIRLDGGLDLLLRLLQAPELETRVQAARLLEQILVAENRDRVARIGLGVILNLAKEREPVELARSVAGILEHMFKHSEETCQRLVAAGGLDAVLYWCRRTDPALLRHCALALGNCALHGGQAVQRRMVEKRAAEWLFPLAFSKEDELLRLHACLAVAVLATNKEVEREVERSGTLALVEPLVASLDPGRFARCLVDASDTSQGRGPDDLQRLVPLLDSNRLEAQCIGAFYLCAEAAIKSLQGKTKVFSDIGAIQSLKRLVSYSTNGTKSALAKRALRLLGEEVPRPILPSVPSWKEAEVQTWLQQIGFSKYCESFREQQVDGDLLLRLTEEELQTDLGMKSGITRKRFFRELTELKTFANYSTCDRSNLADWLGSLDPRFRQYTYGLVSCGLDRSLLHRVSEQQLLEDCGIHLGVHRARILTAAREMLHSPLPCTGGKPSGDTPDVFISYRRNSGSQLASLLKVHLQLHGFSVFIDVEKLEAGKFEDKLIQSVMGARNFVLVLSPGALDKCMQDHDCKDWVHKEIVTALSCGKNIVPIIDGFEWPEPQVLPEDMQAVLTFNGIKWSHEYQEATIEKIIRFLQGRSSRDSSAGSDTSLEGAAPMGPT
PROCEDURE_SUMMARY: ARM-SAM-TIR SARM1 IC50 assay (NADase activity, NAD+ cleavage)
Type: biochemical
TEST_PARAMETERS: ARM-SAM-TIR lysate 5 μg/mL from NRK1-HEK293T cells; 2 h pre-incubation; 5 μM NAD+; 2 hr room temperature; NAD+ and ADPR by RapidFire MS; read-out: SARM1 IC50
pIC50: −log10 of the molar value.

For orientation, consider the following solved cases.
Lookup: Please look up its pIC50: COc1cncc(NCc2ccc(OC(F)(F)F)cc2)n1
Found: 4.82 to 5.30

Lookup: Next record, please: COc1cncc(NCc2cnn(C3CCN(C)CC3)c2)n1
Found: > 5.30

Lookup: Item: COc1cncc(NC(C)c2cccnc2)n1 (centres unmarked)
Found: 4.52 to 4.82

Lookup: Further, for Cn1cc(CNc2cncc(OCC(F)F)n2)cn1 ?
Found: 4.52 to 4.82

Lookup: Cool, now COc1cncc(NCc2ccc(-c3nn[nH]n3)cc2)n1
Found: 4.52 to 4.82

Give measured pIC50 for every item shown.
1. CCN1CCN(c2ccc(CNc3cnccn3)cn2)CC1
2. COc1cncc(NCc2cn[nH]c2)n1
3. CNc1cncc(OCCCCO)n1
4. CNc1ccnc(NC)n1
5. COc1cncc(NCc2cccnc2O)n1

Found:
1. < 4.52
2. 4.82 to 5.30
3. > 5.30
4. < 4.52
5. < 4.52

Lookup: Which value of pIC50 has been reported for COc1cncc(NCc2cnn3cccnc23)n1 in the records?
Found: 4.52 to 4.82
